target: T1, human PD-L1-Fc protein (human, UniProt Q9NZQ7 19-239); assay: BIAcore off rate, unpurified periplasmic extract Fab on PD-L1
T1 construct: Bought from R&D Systems; also called immobilised PD-L1-Fc; not shown: Fc part of the bought fusion protein, not described
T1 sequence (Q9NZQ7 19-239 limits assumed): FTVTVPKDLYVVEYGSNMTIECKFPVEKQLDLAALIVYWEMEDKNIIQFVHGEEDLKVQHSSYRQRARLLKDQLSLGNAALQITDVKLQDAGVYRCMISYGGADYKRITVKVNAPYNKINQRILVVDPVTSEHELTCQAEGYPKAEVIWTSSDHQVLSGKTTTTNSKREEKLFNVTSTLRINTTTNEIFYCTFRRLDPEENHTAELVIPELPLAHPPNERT
recordedMetric: Ratio pH 6 vs 7.4

binder="Fab 8D04 (Fab, V domains shown, Purified Fab prepared from IgG with the Pierce kit; also called 8D04 Fab) VH: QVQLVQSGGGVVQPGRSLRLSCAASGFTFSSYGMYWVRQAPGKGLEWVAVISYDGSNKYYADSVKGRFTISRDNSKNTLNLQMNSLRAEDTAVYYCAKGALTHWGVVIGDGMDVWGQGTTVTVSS VL: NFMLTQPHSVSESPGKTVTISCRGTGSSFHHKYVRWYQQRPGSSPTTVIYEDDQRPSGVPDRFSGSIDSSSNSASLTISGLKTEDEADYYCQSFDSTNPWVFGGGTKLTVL" measurement=10
